Below, each entry is listed alongside its reported growth.
test system: COLO 205 colon; assay: NCI-60 one-dose screen, 48 h (100 = growth as untreated, 0 = no growth, -100 = all killed); settings: 10 µM unless noted
Compounds without any hit were thinned out: in the full panel of roughly 83,000, 20% have a hit.

- test_smiles: "O=C(O)c1ccc(-n2cc(CNc3cc(F)c(F)c(F)c3)c(-c3cccc(F)c3)n2)cc1"
  growth, %: 126
- test_smiles: "NC(=O)c1cccc(-n2ccc3cc(NC(=O)Nc4ccc(N5CCOCC5)c(C(F)(F)F)c4)ccc32)n1"
  growth, %: -48.3
- test_smiles: "Cc1cc(-c2ccc(Cl)cc2)n(Cc2nnc(SCC(=O)Nc3ccc(S(N)(=O)=O)cc3)n2C2CCCCC2)n1"
  growth, %: 116

----------
test system: SK-MEL-5 melanoma; experiment: NCI-60 one-dose screen, 48 h (100 = growth as untreated, 0 = no growth, -100 = all killed); conditions: 10 µM unless noted
This is part of a sample that, as a whole, favours compounds with a hit. Of some 83,000 tested, about 20% had one in any assay.
Each entry below lists one item and its recorded growth value.

- molecule: "COc1ccc(-c2nc3ccc(-c4nnc(SCC(=O)Nc5ccc(C(=O)/C=C/c6ccc(Cl)cc6)cc5)o4)cc3[nH]2)cc1"
  endpoint_unit: "%"
  growth: 98.9
- molecule: "CCN(CC)c1ccc2c(c1)Oc1nc(N)c(C#N)c(N)c1C2Sc1ccc(F)cc1 (stereo not drawn)"
  endpoint_unit: "%"
  growth: -96.2
- molecule: "C=CCn1c(SCC(=O)Nc2ccc(C(=O)/C=C/c3ccc(Br)cc3)cc2)nnc1-c1c[nH]c2ccccc12"
  endpoint_unit: "%"
  growth: 72.3

----------
test system: HOP-62 NSCLC; test: NCI-60 one-dose screen, 48 h; settings: 10 µM unless noted
Compounds without any hit were thinned out: in the full panel of roughly 83,000, 20% have a hit. The source made the active and inactive calls. The calls were made as follows: active = growth percent below 10; inactive = the rest.
Classes used: active, inactive

- molecule: "Cc1ccc2sc3c(c2c1)OC(N)=C(C#N)C3c1ccc(Cl)cc1 (configuration not stated)"
  assigned_class: "inactive"
- molecule: "COc1ccccc1N1CCN(C2=CC(=O)C(C)=C(C)C2=O)CC1"
  assigned_class: "inactive"
- molecule: "O=C1[C@H]2Cc3c([nH]c4ccccc34)[C@@H](c3ccc(Br)cc3)N2C(=O)CN1C1CCN(CC2CCCCC2)CC1"
  assigned_class: "inactive"
- molecule: "COc1ccc(NC(=O)Nc2ccc3c(ccn3C(=O)c3cccc(F)c3)c2)cc1"
  assigned_class: "inactive"
- molecule: "COc1ccc(/C=C(/C)c2ccc3ccc(OC)cc3[o+]2)c(O)c1"
  assigned_class: "inactive"
- molecule: "CCNC(=O)Oc1ccc(/C(=C(/C)c2ccccc2)c2ccc(OCCN3CCCCCC3)cc2)cc1"
  assigned_class: "active"
- molecule: "Cc1ccc(N2C(=O)/C(=C/C=C/c3ccco3)SC2=S)cc1"
  assigned_class: "inactive"

----------
As shown below, each of these molecules has a reported growth value.
test system: MDA-MB-435 melanoma; test: NCI-60 one-dose screen, 48 h (100 = growth as untreated, 0 = no growth, -100 = all killed); conditions: 10 µM unless noted
This is part of a sample that, as a whole, favours compounds with a hit. Of some 83,000 tested, about 20% had one in any assay.
readout_name: growth (%)

- molecule: "O=C(CSc1nc2ccccc2c(=O)n1-c1ccccc1)Nc1cccc(C(=O)/C=C/c2ccccc2)c1"
  readout_value: 93.2
- molecule: "O=C(CCC(=O)N1CCOCC1)OCCCCCCSc1ccc([N+](=O)[O-])c2nonc12"
  readout_value: -88.1
- molecule: "NS(=O)(=O)c1ccc(Nc2nc(SCC(=O)c3ccc(Cl)cc3)nc3c2CCCC3)cc1"
  readout_value: 54.4
- molecule: "O=C(CN1CCN(c2cc(=O)[nH]c3ccc(F)cc23)CC1)Nc1ccc(Cl)cc1"
  readout_value: 96
- molecule: "CC[C@]12C=CCN3CC[C@@]4(c5cc(NC(=O)COc6cc(O)c7c(=O)cc(-c8ccccc8)oc7c6)c(OC)cc5N(C)[C@H]4[C@@](O)(C(=O)OC)[C@@H]1OC(C)=O)[C@@H]32"
  readout_value: -44.7
- molecule: "COc1cc(/C=C2\\C(=O)Nc3ccccc32)ccc1OCc1ccc(Cl)cc1"
  readout_value: 106
- molecule: "COc1cc2nc(Cl)nc(Nc3cccc(C4=Nc5c(N)nc(N)nc5NC(c5ccc6c(c5)OCO6)C4)c3)c2cc1OC (stereo unspecified)"
  readout_value: 88.5
- molecule: "COC(=O)/C=C/c1c(C2(C)NC(=O)c3ccccc3N2)c(=O)oc2ccc(Cl)cc12 (stereo unspecified)"
  readout_value: 102
- molecule: "COc1cc(OC)cc(C(=O)Nc2cccc(C#Cc3cccc4[nH]nc(N)c34)c2)c1"
  readout_value: -38.1
- molecule: "CNCc1cccc2c1OCCCCCCC(C)(O)CC(C)(C)S(=O)(=O)c1ccc(cc1)-c1cnc(N)c(n1)C(=O)N2 (stereo unspecified)"
  readout_value: -85.6
- molecule: "CCNC(=O)N1CCc2cc(OC)c(OCCc3ccc(OC)nc3)cc2C1c1ccc(C)cc1C (stereo unspecified)"
  readout_value: 10
- molecule: "Cn1cc(-c2cc(N)n3nc(-c4cn(C)c5ccccc45)cc3n2)c2ccccc21"
  readout_value: 0.548
- molecule: "Cc1occc1-c1nc2s/c(=C/c3ccc(-c4cc(C(F)(F)F)ccc4Cl)o3)c(=O)n2n1"
  readout_value: 101
- molecule: "Cc1ccc(-c2cc3nc(C(Cl)Cl)nc(C)n3n2)cc1"
  readout_value: 110
- molecule: "O=C(NNc1nc2cc(F)ccc2n2cccc12)c1ccncn1"
  readout_value: 31.5
- molecule: "Nc1nc(-c2cccc([N+](=O)[O-])c2)c(N=Nc2ccccc2)s1"
  readout_value: 64.9
